- Target of assay: Luciferin 4-monooxygenase (Photinus pyralis)
- Sequence (P08659 whole entry): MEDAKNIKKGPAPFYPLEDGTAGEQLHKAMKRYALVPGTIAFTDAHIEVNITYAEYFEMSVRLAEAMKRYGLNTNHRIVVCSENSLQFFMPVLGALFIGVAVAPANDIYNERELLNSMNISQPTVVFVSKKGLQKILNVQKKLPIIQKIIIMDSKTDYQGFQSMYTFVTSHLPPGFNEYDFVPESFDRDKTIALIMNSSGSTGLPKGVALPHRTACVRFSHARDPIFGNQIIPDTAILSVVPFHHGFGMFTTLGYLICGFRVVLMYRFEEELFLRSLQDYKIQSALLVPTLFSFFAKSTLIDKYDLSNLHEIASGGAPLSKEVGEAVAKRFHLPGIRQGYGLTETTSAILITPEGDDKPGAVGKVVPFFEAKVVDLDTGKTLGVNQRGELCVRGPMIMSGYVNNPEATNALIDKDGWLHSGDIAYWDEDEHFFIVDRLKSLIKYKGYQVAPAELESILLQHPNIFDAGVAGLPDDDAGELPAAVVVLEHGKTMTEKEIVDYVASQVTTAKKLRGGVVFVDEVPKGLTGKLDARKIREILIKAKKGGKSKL
- Test conditions: read-out: AC50
- Description: GSK_PKIS: Inhibition of Firefly Luciferase (Data from PubChem: AID 652016) [NIH NCATS]
Metric: AC50 (µM)

Consider the worked cases shown below.
{"Compound": "c1cc(-c2cnn3nc(N4CCOCC4)ccc23)nc(NC2CC2)n1 [GW708336X]", "Unit descriptor": "µM", "AC50": 4.61}
{"Compound": "Cc1nnc(-c2ccc(C)c(-c3ccc(C(=O)Nc4cccc(C#N)c4)cc3)c2)o1 [GW607117X]", "Unit descriptor": "µM", "AC50": 41.1}
{"Compound": "COc1cc(Nc2ncc(-c3ccccc3)o2)cc(OC)c1 [GW631581B]", "Unit descriptor": "µM", "AC50": 6.51}
{"Compound": "NS(=O)(=O)c1cccc(-c2ccc3c(NC(=O)C4CC4)n[nH]c3c2)c1", "Unit descriptor": "µM", "AC50": 20.6}
{"Compound": "CS(=O)(=O)Nc1ccc(N/C=C2\\C(=O)Nc3ccccc32)cc1 [GW278681X]", "Unit descriptor": "µM", "AC50": 16.3}

[a] Cc1ccc(-c2cc3c(NC(=O)C4CC4)ncnc3o2)cc1 [GW819230X]
[b] O=C1Nc2ccccc2/C1=C1\CCc2cc(O)ccc21
Please choose the item with the lower AC50 value from this pair: a and b Indicate which entry you chose by stating its label.
b
(b: 5.17 µM, a: 18.3 µM)
